Measured values drawn from ChEMBL document CHEMBL1149421 for this set.

I'd appreciate it if you could supply pKi values for the items below.
target: GABA A receptor alpha-5/beta-3/gamma-2 (Rattus norvegicus, UniProt P18508+P19969+P63079); experiment: Displacement of [3H]muscimol from GABAA alpha-1-beta-3-gamma-2S in rat brain membrane
Sequence (P18508 whole entry): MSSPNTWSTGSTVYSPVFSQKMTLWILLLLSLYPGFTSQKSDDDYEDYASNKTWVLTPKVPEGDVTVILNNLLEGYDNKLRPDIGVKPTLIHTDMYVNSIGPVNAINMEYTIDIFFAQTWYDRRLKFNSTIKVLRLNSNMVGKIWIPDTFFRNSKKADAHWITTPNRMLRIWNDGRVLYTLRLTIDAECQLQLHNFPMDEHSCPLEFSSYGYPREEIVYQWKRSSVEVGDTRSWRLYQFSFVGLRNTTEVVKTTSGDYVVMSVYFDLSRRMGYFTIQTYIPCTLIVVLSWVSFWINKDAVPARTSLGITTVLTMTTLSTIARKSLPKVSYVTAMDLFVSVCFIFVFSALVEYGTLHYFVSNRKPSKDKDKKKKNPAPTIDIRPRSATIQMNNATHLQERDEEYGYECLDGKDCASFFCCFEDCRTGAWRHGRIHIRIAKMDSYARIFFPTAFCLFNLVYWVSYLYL
Sequence (P19969 whole entry): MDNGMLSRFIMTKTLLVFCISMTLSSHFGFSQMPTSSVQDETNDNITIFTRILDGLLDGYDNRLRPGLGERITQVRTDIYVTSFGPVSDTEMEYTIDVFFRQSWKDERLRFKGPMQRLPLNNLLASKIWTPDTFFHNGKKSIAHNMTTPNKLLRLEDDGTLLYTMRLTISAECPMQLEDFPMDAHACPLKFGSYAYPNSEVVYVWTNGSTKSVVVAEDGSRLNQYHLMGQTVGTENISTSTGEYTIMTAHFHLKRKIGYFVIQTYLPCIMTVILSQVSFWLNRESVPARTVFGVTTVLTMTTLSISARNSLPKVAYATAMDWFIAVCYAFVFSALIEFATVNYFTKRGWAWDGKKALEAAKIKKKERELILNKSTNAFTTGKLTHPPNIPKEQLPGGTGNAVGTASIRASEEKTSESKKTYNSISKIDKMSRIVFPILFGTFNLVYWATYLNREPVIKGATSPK
Sequence (P63079 whole entry): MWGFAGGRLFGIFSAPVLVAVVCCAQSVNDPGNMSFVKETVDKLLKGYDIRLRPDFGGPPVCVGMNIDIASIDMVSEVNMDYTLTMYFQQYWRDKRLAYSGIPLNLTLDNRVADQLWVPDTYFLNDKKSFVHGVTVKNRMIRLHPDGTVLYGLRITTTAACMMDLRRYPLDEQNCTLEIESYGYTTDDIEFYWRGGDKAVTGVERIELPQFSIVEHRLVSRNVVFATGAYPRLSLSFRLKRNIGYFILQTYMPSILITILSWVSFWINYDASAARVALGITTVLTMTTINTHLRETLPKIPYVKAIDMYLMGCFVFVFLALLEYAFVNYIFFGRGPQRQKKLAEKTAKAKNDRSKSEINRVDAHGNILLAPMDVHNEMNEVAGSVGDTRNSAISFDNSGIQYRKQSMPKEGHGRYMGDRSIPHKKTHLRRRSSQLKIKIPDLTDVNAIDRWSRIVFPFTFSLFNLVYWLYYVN
One number for each entry, as −log10 of the molar value.

Worked set:
- MOL: "Oc1noc(C2CCNCC2)c1Cc1ccc2ccccc2c1"
  pKi: 7.31
- MOL: "O=c1[nH]sc(C2CCNCC2)c1CC(c1ccccc1)c1ccccc1"
  pKi: 6.41
- MOL: "Oc1nsc(C2CCNCC2)c1Cc1ccccc1"
  pKi: 6.48
- MOL: "Cc1c(O)nsc1C1CCNCC1"
  pKi: 5.66
- MOL: "Oc1noc(C2CCNCC2)c1CCC(c1ccccc1)c1ccccc1"
  pKi: 7.17

Each molecule below has a recorded value; state its pKi.
1. Oc1nsc(C2CCNCC2)c1Cc1ccc2ccccc2c1
2. Oc1nsc(C2CCNCC2)c1Cc1ccc2ccccc2c1Br
3. Oc1cc(C2CCNCC2)sn1
4. CCCc1c(C2CCNCC2)s[nH]c1=O
5. Oc1nsc(C2CCNCC2)c1CCC(c1ccccc1)c1ccccc1

[8.28, 8.74, 5.73, 6.36, 8.02]

###

Target: GABA-A receptor; alpha-1/beta-3/gamma-2 (Homo sapiens, UniProt P14867+P18507+P28472)
Sequence (P14867 whole entry): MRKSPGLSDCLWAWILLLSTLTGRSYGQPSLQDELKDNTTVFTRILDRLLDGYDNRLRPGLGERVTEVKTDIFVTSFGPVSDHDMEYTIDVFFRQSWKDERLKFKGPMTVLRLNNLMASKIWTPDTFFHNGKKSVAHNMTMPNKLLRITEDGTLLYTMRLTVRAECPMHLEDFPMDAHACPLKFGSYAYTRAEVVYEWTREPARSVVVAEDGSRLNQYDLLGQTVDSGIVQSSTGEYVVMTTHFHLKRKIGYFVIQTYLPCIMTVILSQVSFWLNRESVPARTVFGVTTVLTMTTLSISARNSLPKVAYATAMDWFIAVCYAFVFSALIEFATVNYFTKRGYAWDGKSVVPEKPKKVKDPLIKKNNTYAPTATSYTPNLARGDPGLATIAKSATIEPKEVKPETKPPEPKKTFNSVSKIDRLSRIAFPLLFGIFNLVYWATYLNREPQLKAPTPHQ
Sequence (P18507 whole entry): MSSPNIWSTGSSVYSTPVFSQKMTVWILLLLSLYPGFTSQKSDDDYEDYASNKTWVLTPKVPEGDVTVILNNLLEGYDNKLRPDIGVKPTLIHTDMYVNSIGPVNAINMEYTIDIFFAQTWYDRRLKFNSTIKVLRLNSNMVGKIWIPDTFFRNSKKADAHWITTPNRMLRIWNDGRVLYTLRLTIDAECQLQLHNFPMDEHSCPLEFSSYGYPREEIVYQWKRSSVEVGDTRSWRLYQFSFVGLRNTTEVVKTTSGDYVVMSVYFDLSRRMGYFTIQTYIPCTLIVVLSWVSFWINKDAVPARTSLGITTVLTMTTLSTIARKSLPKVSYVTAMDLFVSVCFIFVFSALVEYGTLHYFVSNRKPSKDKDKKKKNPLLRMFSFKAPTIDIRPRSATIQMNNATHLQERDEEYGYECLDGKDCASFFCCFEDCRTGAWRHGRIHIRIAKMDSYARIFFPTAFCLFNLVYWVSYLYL
Sequence (P28472 whole entry): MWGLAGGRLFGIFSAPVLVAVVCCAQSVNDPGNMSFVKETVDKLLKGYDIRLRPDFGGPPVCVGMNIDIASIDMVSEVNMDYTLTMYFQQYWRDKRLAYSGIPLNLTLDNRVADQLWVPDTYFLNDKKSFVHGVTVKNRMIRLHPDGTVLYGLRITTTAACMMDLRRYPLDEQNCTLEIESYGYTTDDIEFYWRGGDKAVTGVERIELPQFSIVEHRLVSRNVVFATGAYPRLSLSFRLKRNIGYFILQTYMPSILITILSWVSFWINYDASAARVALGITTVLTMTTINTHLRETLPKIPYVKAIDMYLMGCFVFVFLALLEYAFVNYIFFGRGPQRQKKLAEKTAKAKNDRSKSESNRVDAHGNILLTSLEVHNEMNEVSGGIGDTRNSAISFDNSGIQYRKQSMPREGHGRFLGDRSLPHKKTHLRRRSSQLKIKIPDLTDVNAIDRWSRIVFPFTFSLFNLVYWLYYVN
Experiment: Binding affinity at human GABAA alpha-1-beta-3-gamma-2S expressed in Xenopus oocytes by voltage-clamp electrophysiology
I'd appreciate it if you could supply Ki values for the items below.
One number for each entry, in nM.

- MOL: "Oc1nsc(C2CCNCC2)c1Cc1ccc2ccccc2c1"
  OUTPUT_UNIT: "nM"
  Ki: 22
- MOL: "CCCc1c(C2CCNCC2)s[nH]c1=O"
  OUTPUT_UNIT: "nM"
  Ki: 230
- MOL: "Oc1nsc(C2CCNCC2)c1CCC(c1ccccc1)c1ccccc1"
  OUTPUT_UNIT: "nM"
  Ki: 1.2
- MOL: "Oc1noc(C2CCNCC2)c1CCC(c1ccccc1)c1ccccc1"
  OUTPUT_UNIT: "nM"
  Ki: 20
- MOL: "Oc1noc(C2CCNCC2)c1Cc1ccc2ccccc2c1"
  OUTPUT_UNIT: "nM"
  Ki: 370

Each compound below has a recorded value; state its Ki.
1. Cc1c(O)nsc1C1CCNCC1
2. O=c1[nH]sc(C2CCNCC2)c1CC(c1ccccc1)c1ccccc1

1. 2880
2. 720
